biological target: Cytochrome P450 3A4 (Homo sapiens); assay: Time-dependent inhibition of CYP3A4 in human liver microsomes at 10 uM using troleandomycin as […] preincubated with compound followed by NADPH addition by LC-MS/MS analysis; type: ADME
Sequence (P08684 whole entry): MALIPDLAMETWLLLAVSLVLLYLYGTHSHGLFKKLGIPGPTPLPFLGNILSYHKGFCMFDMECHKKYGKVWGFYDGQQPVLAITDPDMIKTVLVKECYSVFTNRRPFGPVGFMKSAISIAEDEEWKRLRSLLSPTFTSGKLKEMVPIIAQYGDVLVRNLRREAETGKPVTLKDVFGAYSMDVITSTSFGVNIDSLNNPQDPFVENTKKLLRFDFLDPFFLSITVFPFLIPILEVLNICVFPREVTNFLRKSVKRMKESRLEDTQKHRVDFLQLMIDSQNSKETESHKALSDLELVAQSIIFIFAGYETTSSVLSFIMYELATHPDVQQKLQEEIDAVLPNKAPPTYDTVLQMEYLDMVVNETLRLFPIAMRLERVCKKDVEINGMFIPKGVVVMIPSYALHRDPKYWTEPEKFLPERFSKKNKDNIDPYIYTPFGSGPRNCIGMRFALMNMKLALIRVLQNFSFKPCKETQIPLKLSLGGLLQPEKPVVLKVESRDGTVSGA
recorded.endpoint: inhibition (INH)

molecule="CC(c1c(F)cc2ncccc2c1F)n1cnc2ncc(-c3cnc4ccccc4c3)nc21 (stereo unspecified)" test_target="Cytochrome P450 3A4 (Homo sapiens)" recorded_endpoint="inhibition (INH)" reported_result=Active
molecule="CC(c1cc2cccnc2cc1F)n1cnc2ncc(-c3cnn(C)c3)nc21 (stereo unspecified)" test_target="Cytochrome P450 3A4 (Homo sapiens)" recorded_endpoint="inhibition (INH)" reported_result="Not Active"
molecule=C[C@@H](c1cc2cccnc2cc1F)n1cnc2ncc(-c3ccc(C(N)=O)c(F)c3)nc21 test_target="Cytochrome P450 3A4 (Homo sapiens)" recorded_endpoint="inhibition (INH)" reported_result="Not Active"
molecule="CNC(=O)c1ccc(-c2cnc3ncn(C(C)c4cc5cccnc5cc4F)c3n2)cc1F (stereo unspecified)" test_target="Cytochrome P450 3A4 (Homo sapiens)" recorded_endpoint="inhibition (INH)" reported_result=Active
molecule="CC(c1c(F)cc2ncccc2c1F)n1cnc2ncc(-c3ccncc3)nc21 (stereo unspecified)" test_target="Cytochrome P450 3A4 (Homo sapiens)" recorded_endpoint="inhibition (INH)" reported_result="Not Active"
molecule="CC(c1cc2cccnc2cc1F)n1cnc2ncc(-c3ccc(C(N)=O)c(F)c3)nc21 (stereo unspecified)" test_target="Cytochrome P450 3A4 (Homo sapiens)" recorded_endpoint="inhibition (INH)" reported_result="Not Active"
molecule="CC(c1c(F)cc2ncccc2c1F)n1cnc2ncc(-c3cnn(C)c3)nc21 (stereo unspecified)" test_target="Cytochrome P450 3A4 (Homo sapiens)" recorded_endpoint="inhibition (INH)" reported_result="Not Active"
molecule="CC(c1c(F)cc2ncccc2c1F)n1cnc2ncc(-c3cnn(CCO)c3)nc21 (stereo unspecified)" test_target="Cytochrome P450 3A4 (Homo sapiens)" recorded_endpoint="inhibition (INH)" reported_result="Not Active"
molecule=C[C@@H](c1cc2cccnc2cc1F)n1cnc2ncc(-c3cnn(C)c3)nc21 test_target="Cytochrome P450 3A4 (Homo sapiens)" recorded_endpoint="inhibition (INH)" reported_result="Not Active"
molecule="COC(=O)c1ccc(-c2cnc3ncn(C(C)c4cc5cccnc5cc4F)c3n2)cc1F (stereo unspecified)" test_target="Cytochrome P450 3A4 (Homo sapiens)" recorded_endpoint="inhibition (INH)" reported_result="Not Active"
molecule="COC(=O)c1ccc(-c2cnc3ncn(C(C)c4c(F)cc5ncccc5c4F)c3n2)cc1F (stereo unspecified)" test_target="Cytochrome P450 3A4 (Homo sapiens)" recorded_endpoint="inhibition (INH)" reported_result="Not Active"

Just for reference, ChEMBL document CHEMBL4477239 is where these values come from.
